target: 5HT2C receptors (Homo sapiens); assay: Human 5-HT2C functional assay in CHO-K1 cells (calcium flux, FLIPR); assay type: cell-based; parameters: expressed in transfected cells; host or cells: CHO-K1 cells; conditions: CHO-K1 cells over-expressing 5HT2C, calcium flux; read-out: EC50 (μM), 5-HT2c Agonist Activity
Sequence (P28335 33-458): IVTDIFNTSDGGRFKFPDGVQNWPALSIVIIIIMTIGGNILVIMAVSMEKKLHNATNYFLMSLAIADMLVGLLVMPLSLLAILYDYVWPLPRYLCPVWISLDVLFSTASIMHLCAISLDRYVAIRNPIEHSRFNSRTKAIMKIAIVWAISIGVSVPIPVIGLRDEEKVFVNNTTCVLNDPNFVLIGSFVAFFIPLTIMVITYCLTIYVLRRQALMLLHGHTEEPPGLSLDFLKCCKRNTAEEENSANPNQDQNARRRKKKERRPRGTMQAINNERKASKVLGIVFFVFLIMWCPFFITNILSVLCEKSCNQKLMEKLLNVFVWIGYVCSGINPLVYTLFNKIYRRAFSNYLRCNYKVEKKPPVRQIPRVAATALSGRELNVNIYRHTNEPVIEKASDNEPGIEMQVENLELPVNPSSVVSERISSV
experimentalReadout: EC50 (µM)
Give just the number in µM; leave the unit off.

Task: For the molecule CC(=O)c1ccccc1-c1ccc2c(c1)N1CCNC[C@@H]1CCO2 , what EC50 is on record?
Output: 0.07

Task: For the molecule FC(F)(F)c1ccc2c(c1)N1CCNC[C@@H]1CCO2 , what EC50 is on record?
Output: 0.01

Task: For the molecule CC(C)Cc1ccc2c(c1)N1CCNC[C@@H]1CCO2 , what EC50 is on record?
Output: 0.03

Task: For the molecule O=C1C[C@H]2CNCCN2c2cc(OCCc3ccccc3F)ccc2N1 , what EC50 is on record?
Output: 0.009

Task: For the molecule C[C@H](Oc1ccc2c(c1)N1CCNCC1CC(=O)N2)c1ccccc1F (stereo partly drawn) , what EC50 is on record?
Output: 0.07

Task: For the molecule CCC(Oc1ccc2c(c1)N1CCNC[C@@H]1CC(=O)N2)c1ccccc1 (stereo partly drawn) , what EC50 is on record?
Output: 0.06

Task: For the molecule O=C1CC2CNCCN2c2cc(-c3csc4ccccc34)ccc2N1 (stereo not drawn) , what EC50 is on record?
Output: 0.09

Task: For the molecule O=C1CC2CNCCN2c2cc(COc3ccccc3F)ccc2N1 (stereo not drawn) , what EC50 is on record?
Output: 0.05

Task: For the molecule CC(C)Oc1cccc(-c2ccc3c(c2)N2CCNC[C@@H]2CC(=O)N3)c1 , what EC50 is on record?
Output: 0.001

* * *

Listing of recorded Ki by entry.
target: h-5-HT6 receptor (Homo sapiens); construct: expressed in transfected cells; host or cells: HEK293 cells (membrane preparation); assay: Human 5-HT6 receptor radioligand binding assay ([3H]-LSD, HEK293 membranes); conditions: HEK293 membranes, 1 nM [3H]-lysergic acid diethylamide, 3.5 hours at room temperature; read-out: Ki (μM), 5-HT6 Agonist Site Radioligand Binding
Sequence (P50406 whole entry): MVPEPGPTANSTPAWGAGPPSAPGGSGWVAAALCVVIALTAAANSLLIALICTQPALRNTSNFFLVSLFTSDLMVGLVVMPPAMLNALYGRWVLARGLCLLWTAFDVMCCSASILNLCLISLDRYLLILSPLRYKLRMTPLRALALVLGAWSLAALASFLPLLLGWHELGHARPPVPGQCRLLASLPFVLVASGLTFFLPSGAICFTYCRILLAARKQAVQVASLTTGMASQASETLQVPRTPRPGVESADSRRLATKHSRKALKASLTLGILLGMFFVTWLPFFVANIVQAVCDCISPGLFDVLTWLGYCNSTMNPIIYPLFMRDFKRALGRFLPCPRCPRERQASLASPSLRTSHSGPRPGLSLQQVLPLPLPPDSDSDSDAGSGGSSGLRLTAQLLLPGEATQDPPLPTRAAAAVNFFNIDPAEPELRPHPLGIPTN
Give just the number in µM; leave the unit off.

- O=C1CC2CNCCN2c2ccc(S(=O)(=O)c3ccccc3)cc2N1 (stereo not drawn) [Example 112]: 0.017
- O=C1NCC2CNCCN2c2ccc(NS(=O)(=O)c3ccccc3)cc21 (stereo not drawn) [Example 48]: 0.045
- O=C1CC2CNCCN2c2ccc(NS(=O)(=O)c3cccc(Cl)c3)cc2N1 (stereo not drawn) [Example 101]: 0.0223
- O=C1CC2CNCCN2c2ccc(NS(=O)(=O)c3ccccc3C(F)(F)F)cc2N1 (stereo not drawn) [Example 126]: 0.0234
- O=C1CC2CNCCN2c2ccc(NS(=O)(=O)c3cccc4ccccc34)cc2N1 (stereo not drawn) [Example 124]: 0.0068
- O=C1CC2CNCCN2c2ccc(NS(=O)(=O)c3ccc(F)cc3)cc2N1 (stereo not drawn) [Example 105]: 0.0208
- O=C1NCC2CNCCN2c2ccc(NS(=O)(=O)c3cccc(C(F)(F)F)c3)cc21 (stereo not drawn) [Example 184]: 0.008
- O=C1CC2CNCCN2c2ccc(NS(=O)(=O)c3cccc(OC(F)(F)F)c3)cc2N1 (stereo not drawn) [Example 120]: 0.0183
- Cc1ccccc1S(=O)(=O)Nc1ccc2c(c1)NC(=O)CC1CNCCN21 (stereo not drawn) [Example 98]: 0.0224
- O=C1CC2CNCCN2c2ccc(NS(=O)(=O)c3cccs3)cc2N1 (stereo not drawn) [Example 109]: 0.0556

Here is the next item to consider.
Task: For the compound N#Cc1cccc(S(=O)(=O)Nc2ccc3c(c2)NC(=O)CC2CNCCN32)c1 (stereo not drawn) [Example 122] , what Ki is on record?
Output: 0.19
